Source: paper PMC6522524

# assay_protocol: in vitro
# Assay type: cell-based, human
# experimental_conditions: human, Cell viability(%), AVERAGE
property_label: viability at 0.1 µM (%)
Entry rule: numbers only, all in %.

Hello, please tell me recorded viability at 0.1 µM for this one: Cc1cc(C2CCCCC2)n(O)c(=O)c1
99.9

* * *

# assay_protocol: in vitro
# Type: cell-based, human
# experimental_conditions: human, Cell viability(%), AVERAGE
property_label: viability at 0.2 µM

Hello, please tell me recorded viability at 0.2 µM for this one: Cc1cc(C2CCCCC2)n(O)c(=O)c1 [Ciclopirox]
99.8%

* * *

# Test system: HBV pgRNA/precore RNA in HepG2.2.15 cells
# Type: cell-based, Hepatitis B virus
Where a name gives a salt, the structure may show the parent alone.
property_label: Relative HBV pgRNA/precore RNA level (Folds), AVERAGE
Entry rule: numbers only, all in Folds.

Hello, please tell me recorded Relative HBV pgRNA/precore RNA level (Folds), AVERAGE for this one: Clc1ccc(COC(Cn2ccnc2)c2ccc(Cl)cc2Cl)c(Cl)c1 (stereo not drawn)
0.964

Hello, please tell me recorded Relative HBV pgRNA/precore RNA level (Folds), AVERAGE for this one: Clc1ccc(COC(Cn2ccnc2)c2ccc(Cl)cc2Cl)cc1 (stereo not drawn) [Econazole nitrate]
0.0453

Hello, please tell me recorded Relative HBV pgRNA/precore RNA level (Folds), AVERAGE for this one: CC(C)(C)c1ccc(C(O)CCCN2CCC(C(O)(c3ccccc3)c3ccccc3)CC2)cc1 (stereo not drawn)
0.05435

Hello, please tell me recorded Relative HBV pgRNA/precore RNA level (Folds), AVERAGE for this one: CN1C(C(=O)Nc2ccccn2)=C(O)c2sccc2S1(=O)=O
0.04619

Hello, please tell me recorded Relative HBV pgRNA/precore RNA level (Folds), AVERAGE for this one: NCCc1ccc(O)c(O)c1 [Dopamine hydrochloride]
1.103

Hello, please tell me recorded Relative HBV pgRNA/precore RNA level (Folds), AVERAGE for this one: O=N[O-].[Na+] [Sodium nitrite]
0.04652

* * *

# assay_protocol: in vitro
# Assay type: cell-based, human
# experimental_conditions: human, Cell viability(%), AVERAGE
property_label: viability at 2 µM
Returns: string containing the numeric result and its unit.

Hello, please tell me recorded viability at 2 µM for this one: Cc1cc(C2CCCCC2)n(O)c(=O)c1 [Ciclopirox]
97.4%

* * *

# assay_protocol: in vitro
# experimental_conditions: human, Cell viability(%), AVERAGE, HBV 1.2x adr, 10 μM, 6 days
property_label: viability at 10 µM (%)
Entry rule: numbers only, all in %.

Hello, please tell me recorded viability at 10 µM for this one: C=C1[C@H](CO)[C@@H](O)C[C@@H]1n1cnc2c(=O)[nH]c(N)nc21
99.6

* * *

# assay_protocol: in vitro
# Assay type: cell-based, human
# experimental_conditions: human, Cell viability(%), individual samples
property_label: viability at 1 µM (%)
Entry rule: numbers only, all in %.

Hello, please tell me recorded viability at 1 µM for this one: Cc1cc(C2CCCCC2)n(O)c(=O)c1
96.6

* * *

# assay_protocol: in vitro
# experimental_conditions: human, Cell viability(%), AVERAGE
property_label: viability at 2 µM (%)
Entry rule: numbers only, all in %.

Hello, please tell me recorded viability at 2 µM for this one: Cc1cc(C2CCCCC2)n(O)c(=O)c1
99.1
